target of assay: hGOAT (human ghrelin O-acyltransferase) (Homo sapiens, UniProt Q96T53)
Construct: made in house; host or cells: Sf9 insect cells (membrane/microsomal fraction)
Sequence (Q96T53 whole entry): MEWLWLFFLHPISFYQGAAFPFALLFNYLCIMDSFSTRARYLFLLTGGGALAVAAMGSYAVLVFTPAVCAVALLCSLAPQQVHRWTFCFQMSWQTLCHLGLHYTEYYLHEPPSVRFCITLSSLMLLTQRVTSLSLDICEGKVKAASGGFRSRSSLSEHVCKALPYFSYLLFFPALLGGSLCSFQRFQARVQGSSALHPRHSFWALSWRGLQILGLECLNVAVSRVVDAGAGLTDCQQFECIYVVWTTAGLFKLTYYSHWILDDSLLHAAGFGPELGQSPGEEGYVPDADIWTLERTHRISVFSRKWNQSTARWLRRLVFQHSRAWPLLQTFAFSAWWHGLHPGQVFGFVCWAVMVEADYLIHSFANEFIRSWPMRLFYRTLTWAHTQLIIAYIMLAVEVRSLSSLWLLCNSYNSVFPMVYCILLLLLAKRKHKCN
measurement notes: GOAT ghrelin acylation (octanoylation) inhibition assay, membrane fraction of Sf9 cells expressing hGOAT, HPLC readout
Assay type: biochemical
test context: average of three independent trials; ± one standard deviation; read-out: IC50 against hGOAT
Non-standard residues stand in square brackets, D forms with d. Residues, ends and D or L forms follow the SMILES beside them. *: point of attachment. X4 = CN1C(=C/C=C/C=C/C2=[N+](CCCCCC(=O)NCCCn3cc(COC[C@H]4CC[C@H](CN5C(=O)CC(*)C5=O)CC4)nn3)c3ccc(S(=O)(=O)[O-])cc3C2(C)C)C(C)(C)c2cc(S(=O)(=O)O)ccc21; 1Nal = N[C@@H](Cc1cccc2ccccc12)C(=O)O; PEG3 = NCCOCCOCCOCCC(=O)O; Dap = NC[C@H](N)C(=O)O
quantity kind: pIC50
Scale explanation: pIC50 corresponds to minus log10 of a concentration expressed in moles per litre.

Q) State its pIC50: CC(C)C[C@H](NC(=O)[C@H](Cc1cccc2ccccc12)NC(=O)[C@H](CN)NC(=O)[C@H](CO)NC(=O)CN)C(=O)N[C@@H](CO)C(=O)N1CCC[C@H]1C(=O)N[C@H](C(=O)NCCOCCOCCOCCC(=O)N[C@@H](CCn1cc(COC[C@H]2CC[C@H](CN3C(=O)C=CC3=O)CC2)nn1)C(N)=O)[C@@H](C)O
A) 5.98

Q) Fill in reported pIC50 for this entry: COc1cc(/N=N/c2ccc(C)cc2[N+](=O)[O-])c(C)cc1/N=N/c1ccc(N(C)CCCC(=O)NCc2cn(CC[C@H](NC(=O)CCOCCOCCOCCNC(=O)[C@@H](NC(=O)[C@@H]3CCCN3C(=O)[C@H](CO)NC(=O)[C@H](CC(C)C)NC(=O)[C@H](Cc3cccc4ccccc34)NC(=O)[C@H](CN)NC(=O)[C@H](CO)NC(=O)CN)[C@@H](C)O)C(N)=O)nn2)cc1
A) 8.41

Q) # return recorded pIC50 for entry CC(C)C[C@H](NC(=O)[C@H](Cc1cccc2ccccc12)NC(=O)[C@H](CN)NC(=O)[C@H](CO)NC(=O)CN)C(=O)N[C@@H](CO)C(=O)N1CCC[C@H]1C(=O)N[C@H](C(=O)NCCOCCOCCOCCC(=O)N[C@@H](CSC1CC(=O)N(C[C@H]2CC[C@H](COCc3cn(CCCNC(=O)CCCCC[N+]4=C(/C=C/C=C/C=C5N(C)c6ccc(S(=O)(=O)O)cc6C5(C)C)C(C)(C)c5cc(S(=O)(=O)[O-])ccc54)nn3)CC2)C1=O)C(N)=O)[C@@H](C)O (stereo partly drawn) [Ligand 9] (H-GS[Dap][1Nal]LSPT[PEG3]C(X4)-NH2)
A) 7.07
